Entries and their MIC50 values follow.
test system: vancomycin resistant Enterococci (VRE); assay: Assay for in vitro antibacterial activity, agar dilution (VRE); conditions: Enterococcus, read-out: Minimum Inhibitory Concentration (MIC50) VRE
Numbers only here, please. The scale is µg/mL.

Examples from the recorded data:
smiles.data: O=C1O[C@@H](CO)CN1c1ccc(-c2ccc(-n3cncn3)nc2)c(F)c1
MIC50, µg/mL: 1
--
smiles.data: N#CCc1csc(-c2ccc(-c3ccc(N4C[C@H](COC(=O)CN)OC4=O)cc3F)cc2)n1
MIC50, µg/mL: 1
--
smiles.data: Cn1nnc(-c2ccc(-c3ccc(N4C[C@H](Cn5ccnn5)OC4=O)cc3F)cn2)n1
MIC50, µg/mL: 0.125

Field: next compound
Input line: GET /values?readout=MIC50&item= Cl.NC[C@H]1CN(c2ccc(-c3ccc(-n4ccnc4)nc3)c(F)c2)C(=O)O1
Output line: 32

Data provenance: patent US8420676B2
